# Assay Method Text: AUC (0 to t) in Sprague-Dawley rat at 10 mg/kg, po
# Type: ADME, organism-based
# Parameters: dose 10 mg/kg, route po
# Stated Conditions: in vivo
Measure: AUC(0-t)
Hey, just the number and the unit after it is fine.

Q) Fill in the blank: the reported AUC(0-t) of Cc1cc(/C=C/C#N)cc(C)c1Cc1nc(NC2CCN(Cc3ccc(C(N)=O)cc3)CC2)ncc1-c1cncnc1 is ____.
A) 654 ng·h/mL

====

# Test system: Human immunodeficiency virus 1
# Assay Method Text: Antiviral activity against HIV-1 harboring K103N/Y181C mutant infected in human MT4 cells assessed as virus-induced cytopathicity treated for 5 days by MTT assay
# Assay type: functional, organism-based
# Stated Conditions: Human immunodeficiency virus 1, MT4, 120 h
Measure: pEC50
In simple prose, pEC50 is minus the logarithm base ten of a concentration in moles per litre.

Q) Query for Human immunodeficiency virus 1: what pEC50 does the record show for Cc1cc(/C=C/C#N)cc(C)c1Cc1nc(NC2CCN(Cc3ccc(C(N)=O)cc3)CC2)ncc1-c1cncnc1 ?
A) 8.00
